target: DRB1*1302 (Homo sapiens, UniProt P01903+P01911, A100E/A169T/K41T/L162R/M171V/P40S/Q125H/Q178H/Q39Y/Q99D/R42S/S66N/T262R/V115G/W38E/Y61H); assay: biochemical; format: binding; conditions: competitive inhibition of radiolabeled standard peptide; DRB1*1302; read-out: Binding Affinity (nM) DRB1*1302
Sequence (P01903 26-254 limits assumed, other chains not shown): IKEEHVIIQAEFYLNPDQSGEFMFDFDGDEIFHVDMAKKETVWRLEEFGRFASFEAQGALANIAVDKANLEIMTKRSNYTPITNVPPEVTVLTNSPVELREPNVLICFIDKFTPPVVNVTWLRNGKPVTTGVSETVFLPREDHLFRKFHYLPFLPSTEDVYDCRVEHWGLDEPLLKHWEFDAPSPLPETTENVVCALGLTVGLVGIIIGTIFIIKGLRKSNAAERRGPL
Give measured log10 of IC50 for each item. Keep answers brief.
Scale: decimal log of IC50, IC50 in nM.

compound	assay_metric	reported_measurement
C[C@@H](O)[C@H](NC(=O)[C@H](CO)NC(=O)[C@H](CO)NC(=O)[C@H](Cc1c[nH]cn1)NC(=O)[C@H](CCC(=O)O)NC(=O)[C@H](CCC(=O)O)NC(=O)[C@@H](N)CCCCN)C(=O)N[C@@H](Cc1c[nH]c2ccccc12)C(=O)N[C@@H](Cc1c[nH]cn1)C(=O)N[C@@H](Cc1ccc(O)cc1)C(=O)N[C@@H](CC(=O)O)C(=O)N[C@@H](CC(=O)O)C(=O)N[C@@H](CCC(=O)O)C(=O)N[C@@H](CC(N)=O)C(=O)N1CCC[C@H]1C(=O)N[C@@H](Cc1ccc(O)cc1)C(=O)N[C@@H](CCCCN)C(=O)O [NS5 284-300]	log10 of IC50	3.31
CC[C@H](C)[C@H](NC(=O)[C@H](Cc1ccc(O)cc1)NC(=O)CNC(=O)[C@H](CC(C)C)NC(=O)[C@H](CCCCN)NC(=O)[C@H](Cc1c[nH]cn1)NC(=O)[C@H](CC(C)C)NC(=O)CNC(=O)[C@H](CCC(=O)O)NC(=O)CNC(=O)[C@H](CCC(=O)O)NC(=O)[C@@H](NC(=O)CNC(=O)[C@H](CO)NC(=O)[C@H](Cc1ccc(O)cc1)NC(=O)[C@H](CO)NC(=O)[C@@H](N)CC(N)=O)C(C)C)C(=O)O [NS5 501-517]	log10 of IC50	3.70
CC[C@H](C)[C@H](NC(=O)[C@H](C)NC(=O)[C@H](CC(N)=O)NC(=O)[C@H](CO)NC(=O)[C@H](C)NC(=O)[C@H](CC(C)C)NC(=O)[C@H](CCCNC(=N)N)NC(=O)[C@H](CC(C)C)NC(=O)[C@H](CC(=O)O)NC(=O)[C@H](CCCNC(=N)N)NC(=O)[C@@H](N)CCCNC(=N)N)C(=O)N[C@@H](CS)C(=O)N[C@@H](CO)C(=O)N[C@@H](C)C(=O)N[C@H](C(=O)N1CCC[C@H]1C(=O)N[C@H](C(=O)O)C(C)C)C(C)C [NS5 769-785]	log10 of IC50	0.65
CC[C@H](C)[C@H](NC(=O)[C@H](C)NC(=O)[C@H](CC(N)=O)NC(=O)[C@H](C)NC(=O)[C@H](CC(C)C)NC(=O)[C@H](CCC(N)=O)NC(=O)[C@H](CCCNC(=N)N)NC(=O)[C@H](Cc1c[nH]cn1)NC(=O)[C@H](CCC(=O)O)NC(=O)[C@@H]1CCCN1)C(=O)N[C@@H](Cc1ccccc1)C(=O)N[C@@H](CCCCN)C(=O)N[C@@H](CC(C)C)C(=O)N[C@H](C(=O)N[C@@H](Cc1ccc(O)cc1)C(=O)N[C@@H](CCC(N)=O)C(=O)N[C@@H](CC(N)=O)C(=O)O)[C@@H](C)O [NS5 558-574]	log10 of IC50	3.15

Dear colleague, could you please provide log10 of IC50 for the compounds listed below?
1. CSCC[C@H](NC(=O)[C@@H](NC(=O)[C@H](Cc1ccccc1)NC(=O)[C@H](CCCNC(=N)N)NC(=O)[C@H](CC(N)=O)NC(=O)[C@H](CC(C)C)NC(=O)[C@H](CC(C)C)NC(=O)[C@H](CC(C)C)NC(=O)[C@H](CCCNC(=N)N)NC(=O)[C@H](CO)NC(=O)[C@@H](NC(=O)[C@@H](N)CCSC)C(C)C)[C@@H](C)O)C(=O)N[C@H](C(=O)N[C@@H](Cc1c[nH]cn1)C(=O)N[C@@H](CCCNC(=N)N)C(=O)N[C@@H](CCCNC(=N)N)C(=O)O)[C@@H](C)O [NS5 233-248]
2. CC[C@H](C)[C@H](NC(=O)[C@H](CC(N)=O)NC(=O)CNC(=O)[C@@H](NC(=O)CNC(=O)[C@H](CC(N)=O)NC(=O)[C@@H](N)CO)[C@@H](C)O)C(=O)N[C@H](C(=O)N[C@@H](CO)C(=O)N[C@@H](CO)C(=O)N[C@H](C(=O)N[C@@H](CC(N)=O)C(=O)N[C@@H](CCSC)C(=O)N[C@H](C(=O)N[C@@H](CO)C(=O)N[C@@H](CCCNC(=N)N)C(=O)N[C@@H](CC(C)C)C(=O)O)C(C)C)C(C)C)C(C)C [NS5 221-237]

[1.53, 1.81]
